- testSystem: human DGKα (Homo sapiens (Human))
- Sequence (P23743 whole entry, looked up): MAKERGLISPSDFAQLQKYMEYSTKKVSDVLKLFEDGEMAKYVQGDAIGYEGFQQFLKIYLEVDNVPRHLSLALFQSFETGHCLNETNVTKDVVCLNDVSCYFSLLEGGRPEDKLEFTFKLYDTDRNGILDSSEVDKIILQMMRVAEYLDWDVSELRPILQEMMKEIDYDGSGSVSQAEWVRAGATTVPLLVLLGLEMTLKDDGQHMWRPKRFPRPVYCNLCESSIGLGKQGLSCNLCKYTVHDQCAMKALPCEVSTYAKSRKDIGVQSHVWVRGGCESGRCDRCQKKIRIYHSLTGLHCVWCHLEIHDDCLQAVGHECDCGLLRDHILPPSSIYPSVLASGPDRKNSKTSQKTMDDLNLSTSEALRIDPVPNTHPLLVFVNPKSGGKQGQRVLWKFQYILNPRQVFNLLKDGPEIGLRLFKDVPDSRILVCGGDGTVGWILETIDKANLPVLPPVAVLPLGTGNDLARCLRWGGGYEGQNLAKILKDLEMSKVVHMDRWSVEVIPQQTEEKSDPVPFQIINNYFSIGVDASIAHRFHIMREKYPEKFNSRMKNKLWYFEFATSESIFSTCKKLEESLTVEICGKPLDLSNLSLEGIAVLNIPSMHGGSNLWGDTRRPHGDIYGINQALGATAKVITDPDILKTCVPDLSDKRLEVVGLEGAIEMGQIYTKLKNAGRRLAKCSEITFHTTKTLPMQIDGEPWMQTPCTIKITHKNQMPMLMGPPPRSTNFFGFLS
- testName: DGKα ADPGLO assay (detergent/lipid micelle substrate)
- Assay type: biochemical
- recordedConditions: ADPGLO assay; read-out: DGK alpha ADPGLO IC50
parameter: IC50 (µM)

Before answering, review these 6 worked examples.
CCC(c1ccc(C2OCCO2)cc1)N1C[C@H](C)N(c2nc(=O)n(C)c3ccc(C#N)nc23)C[C@H]1CC (stereo partly shown) [Example 332]; 0.074
[2H]C([2H])([2H])n1c(=O)nc(N2C[C@@H](CC)N(C(C)c3ccc(C(F)(F)F)cc3)C[C@@H]2C)c2nc(C#N)ccc21 (single isomer, unassigned) [Example 419]; 0.033
CC(c1ccc(CN2C[C@@H]3C[C@H]2CO3)cc1)N1C[C@H](C)N(c2nc(=O)n(C)c3ccc(C#N)nc23)C[C@H]1C (stereo partly shown) [Example 387]; 1.93
CC(c1ccc(C(F)(F)F)cc1)N1C[C@H](CO)N(c2nc(=O)n(C)c3ccc(C#N)nc23)C[C@H]1C (single isomer, unassigned) [Example 406]; 1.96
CCC(c1ccc(OCCC(F)(F)F)cc1)N1C[C@H](C)N(c2nc(=O)n(C)c3ccc(C#N)nc23)C[C@H]1CC (single isomer, unassigned) [Example 335]; 0.025
CCC(C1CC(F)(F)C1)N1C[C@H](C)N(c2nc(=O)n(C)c3ccc(C#N)nc23)C[C@H]1C (stereo partly shown) [Example 458]; 7.74

(a) CCC(c1ccc(C(F)(F)F)cc1)N1C[C@H](CC)N(c2nc(=O)n(C)c3ccc(Cl)nc23)C[C@H]1CC (single isomer, unassigned) [Example 421]
(b) CCC(c1ccc(OC2CC2)cc1)N1C[C@H](C)N(c2nc(=O)n(C)c3ccc(C#N)nc23)C[C@H]1CC (stereo partly shown) [Example 312]
(c) CCC(C1CC(F)(F)C1)N1C[C@H](C)N(c2nc(=O)n(C)c3ccc(C#N)nc23)C[C@H]1C (stereo partly shown) [Example 456]
(d) CC(c1ccc(CN2C[C@@H]3C[C@H]2CO3)cc1)N1C[C@H](C)N(c2nc(=O)n(C)c3ccc(C#N)nc23)C[C@H]1C (stereo partly shown) [Example 388]
Enquiry: In this exercise, place the 4 molecules in ascending sequence of their recorded IC50. Enter labels, ranked according to the request.
Return: a, b, d, c

###

- testSystem: UniProt Q13574
- Sequence (Q13574 other isoform, or with tags, fused parts or gaps): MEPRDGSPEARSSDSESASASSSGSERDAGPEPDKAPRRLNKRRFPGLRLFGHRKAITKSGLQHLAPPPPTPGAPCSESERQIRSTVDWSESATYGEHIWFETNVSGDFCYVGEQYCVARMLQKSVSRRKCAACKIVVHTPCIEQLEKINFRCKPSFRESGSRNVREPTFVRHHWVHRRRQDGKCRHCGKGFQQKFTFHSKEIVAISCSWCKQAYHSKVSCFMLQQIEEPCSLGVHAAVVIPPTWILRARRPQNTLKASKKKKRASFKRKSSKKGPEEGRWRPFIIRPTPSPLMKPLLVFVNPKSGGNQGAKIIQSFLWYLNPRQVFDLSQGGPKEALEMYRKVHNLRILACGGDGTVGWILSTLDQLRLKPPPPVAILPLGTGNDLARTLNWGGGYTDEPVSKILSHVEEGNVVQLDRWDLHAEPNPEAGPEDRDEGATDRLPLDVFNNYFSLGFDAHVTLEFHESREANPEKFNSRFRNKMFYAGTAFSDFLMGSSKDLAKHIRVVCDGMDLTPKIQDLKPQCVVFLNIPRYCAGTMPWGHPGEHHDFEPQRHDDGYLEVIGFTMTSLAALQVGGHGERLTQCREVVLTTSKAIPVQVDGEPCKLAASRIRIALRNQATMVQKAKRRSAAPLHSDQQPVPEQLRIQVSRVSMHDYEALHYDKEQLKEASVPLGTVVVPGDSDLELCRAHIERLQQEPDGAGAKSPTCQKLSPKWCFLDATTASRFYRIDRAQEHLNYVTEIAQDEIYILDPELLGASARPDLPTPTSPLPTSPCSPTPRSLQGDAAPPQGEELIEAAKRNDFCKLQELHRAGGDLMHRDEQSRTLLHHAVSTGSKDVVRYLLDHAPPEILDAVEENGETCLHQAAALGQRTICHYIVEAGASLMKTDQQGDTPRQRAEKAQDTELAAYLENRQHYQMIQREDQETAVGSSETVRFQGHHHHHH
- testName: DGKζ LIPGLO assay (extruded liposome substrate, ADP-Glo luminescence)
- Assay type: biochemical
- recordedConditions: liposome assay; read-out: DGK zeta LIPGLO IC50
pIC50: −log10 of the molar value.
parameter: pIC50

(I) CC[C@H]1CN(C(C)c2ccc(OC(C)(C)COC)cc2)[C@H](CC)CN1c1nc(=O)n(C)c2ccc(C#N)nc12 (stereo partly drawn) [Example 189]
(II) CC[C@@H]1CN(c2nc(=O)n(C)c3ccc(C#N)nc23)[C@@H](C)CN1C(c1ccc(OC(F)(F)F)cc1)c1ccccn1 (single isomer, unassigned) [Example 94]
(III) CC[C@H]1CN(C(c2ccc(F)cc2)c2ccon2)[C@H](CC)CN1c1nc(=O)n(C)c2ccc(C#N)nc12 (single isomer, unassigned) [Example 34]
(IV) CC[C@H]1CN(C(C)c2ccc(OCC3CC3)cc2F)[C@H](CC)CN1c1nc(=O)n(C)c2ccc(C#N)nc12 (single isomer, unassigned) [Example 32]
(V) CCC(c1ccc(C(C)(C)C#N)cc1)N1C[C@H](CC)N(c2nc(=O)n(C)c3ccc(C#N)nc23)C[C@H]1CC (stereo partly drawn) [Example 252]
Enquiry: Put the items in order so that reported pIC50 rises from first to last. Enter labels, ranked according to the request.
Return: I, V, III, II, IV
(I: 4.77, V: 6.11, III: 6.51, II: 7.07, IV: 7.51)

Cited source: patent US11584747B2
